Target: HLA-A*02 (Homo sapiens, UniProt P04439, D140Y/D185E/D98H/E176V/E277Q/G131W/G231S/I119V/I121R/I166T/I218V/N151K/N90K/P208A/P217A/Q86G/Q94H/R138H/R169H)
Assay: MHC binding assay: UV-ligand exchange, beta2m ELISA (peptide exchange yield)
Settings: binding to HLA-A*02, β2m ELISA
quantity_kind: Peptide exchange (MHC class I binding score, peptide exchange yield)

substance: 48 (TLDHKPVTV; listed as Homo sapiens) [compound 48]
result: ++ (20%-49% = ++)

substance: 330 (FLWPKEVEL; listed as Homo sapiens) [compound 330]
result: +++ (50%-75% = +++)

substance: 77 (IVLSTIASV; listed as Homo sapiens) [compound 77]
result: +++ (50%-75% = +++)

substance: 90 (GAVAEEVLSSI; listed as Homo sapiens) [compound 90]
result: + (<20% = +)

substance: 58 (ALDDSLTSL; listed as Homo sapiens) [compound 58]
result: ++ (20%-49% = ++)

Asked: Please list Peptide exchange (MHC class I binding score, peptide exchange yield) recorded for the substance 41 (FVLPLVVTL; listed as Homo sapiens) [compound 41]
Given back: +++ (50%-75% = +++)

Asked: Please list Peptide exchange (MHC class I binding score, peptide exchange yield) recorded for the substance 84 (FLEEEITRV; listed as Homo sapiens) [compound 84]
Given back: +++ (50%-75% = +++)

Asked: Please list Peptide exchange (MHC class I binding score, peptide exchange yield) recorded for the substance 91 (SSLEPQIQPV; listed as Homo sapiens) [compound 91]
Given back: + (<20% = +)

Asked: Please list Peptide exchange (MHC class I binding score, peptide exchange yield) recorded for the substance 93 (SLLTQPIFL; listed as Homo sapiens) [compound 93]
Given back: +++ (50%-75% = +++)

Asked: Please list Peptide exchange (MHC class I binding score, peptide exchange yield) recorded for the substance 2 (ALYGKLLKL; listed as Homo sapiens) [compound 2]
Given back: +++ (50%-75% = +++)

Asked: Please list Peptide exchange (MHC class I binding score, peptide exchange yield) recorded for the substance 326 (SLLPLVWKI; listed as Homo sapiens) [compound 326]
Given back: +++ (50%-75% = +++)

Asked: Please list Peptide exchange (MHC class I binding score, peptide exchange yield) recorded for the substance 25 (IQADDFRTL; listed as Homo sapiens) [compound 25]
Given back: ++ (20%-49% = ++)

Asked: Please list Peptide exchange (MHC class I binding score, peptide exchange yield) recorded for the substance 50 (EYALLYHTL; listed as Homo sapiens) [compound 50]
Given back: ++ (20%-49% = ++)

Asked: Please list Peptide exchange (MHC class I binding score, peptide exchange yield) recorded for the substance 53 (SLLSHVIVA; listed as Homo sapiens) [compound 53]
Given back: +++ (50%-75% = +++)

Asked: Please list Peptide exchange (MHC class I binding score, peptide exchange yield) recorded for the substance 75 (ILDNVKNLL; listed as Homo sapiens) [compound 75]
Given back: +++ (50%-75% = +++)

Asked: Please list Peptide exchange (MHC class I binding score, peptide exchange yield) recorded for the substance 78 (LLWGHPRVA; listed as Homo sapiens) [compound 78]
Given back: +++ (50%-75% = +++)

---

Target: HLA-A*02 (Homo sapiens, UniProt P04439, D140Y/D185E/D98H/E176V/E277Q/G131W/G231S/I119V/I121R/I166T/I218V/N151K/N90K/P208A/P217A/Q86G/Q94H/R138H/R169H)
Assay: MHC binding assay: UV-ligand exchange, beta2m ELISA (peptide exchange yield)
Conditions: binding to HLA-A*02, β2m ELISA
quantity_kind: Peptide exchange (MHC class I binding score, peptide exchange yield)

substance: 92 (LLRGPPVARA; listed as Homo sapiens) [compound 92]
result: ++ (20%-49% = ++)
--
substance: 28 (TLYSMDLMKV; listed as Homo sapiens) [compound 28]
result: +++ (50%-75% = +++)
--
substance: 89 (YLVAHNLLL; listed as Homo sapiens) [compound 89]
result: +++ (50%-75% = +++)
--
substance: 8 (KLGPFLLNA; listed as Homo sapiens) [compound 8]
result: +++ (50%-75% = +++)
--
substance: 328 (SVDSAPAAV; listed as Homo sapiens) [compound 328]
result: ++ (20%-49% = ++)

Asked: Please list Peptide exchange (MHC class I binding score, peptide exchange yield) recorded for the substance 71 (GLITVDIAL; listed as Homo sapiens) [compound 71]
Given back: +++ (50%-75% = +++)

Asked: Please list Peptide exchange (MHC class I binding score, peptide exchange yield) recorded for the substance 88 (ILLNTEDLASL; listed as Homo sapiens) [compound 88]
Given back: +++ (50%-75% = +++)

Asked: Please list Peptide exchange (MHC class I binding score, peptide exchange yield) recorded for the substance 76 (ILLDESNFNHFL; listed as Homo sapiens) [compound 76]
Given back: +++ (50%-75% = +++)

Asked: Please list Peptide exchange (MHC class I binding score, peptide exchange yield) recorded for the substance 19 (TLLPTVLTL; listed as Homo sapiens) [compound 19]
Given back: +++ (50%-75% = +++)
